Hi there, I'd appreciate the recorded inhibition at 16 µM for every entry that follows.
target: 5-lipoxygenase (Rattus norvegicus); construct: host or cells: RBL-1; test: ARBL whole cell 5-lipoxygenase assay (LTB4 formation, RBL-1 cells); format: cell-based; conditions: @ 16 μM, A23187, read-out: ARBL inhibition of LTB4 at given concentration
Numbers only; they are read as %.

Give the reported value of inhibition at 16 µM for this record: CNC(=O)N(O)C(c1ccccc1)c1cc(C(C)(C)C)c(O)c(C(C)(C)C)c1 (centres unmarked)
93

Give inhibition at 16 µM for the following compound: CC(=O)N(O)Cc1cc(C(C)(C)C)c(O)c(C(C)(C)C)c1
90

Retrieve inhibition at 16 µM measured for CC(=O)ON(Cc1cc(C(C)(C)C)c(O)c(C(C)(C)C)c1)C(C)=O [Example 12, hydrate] and print it.
95

Answer with the recorded inhibition at 16 µM for the compound listed here: CCNC(=O)N(O)C(c1ccccc1)c1cc(C(C)(C)C)c(O)c(C(C)(C)C)c1 (centres unmarked)
99

###

Target: 5-lipoxygenase (Rattus norvegicus, UniProt P12527)
Construct: host or cells: RBL-1
Assay: ARBL whole cell 5-lipoxygenase assay (LTB4 formation, RBL-1 cells)
Format: cell-based
Conditions: @ 16 μM, A23187, read-out: ARBL inhibition of LTB4 at given concentration
Method: ARBL/ARBC WHOLE CELL 5-LIPOXYGENASE AND CYCLOOXYGENASE ASSAYS The rat basophilic leukemia cell line (RBL-1) was obtained from the American Type Culture Collection (Rockville, Md.). Radioimmunoassay (RIA) kits of LTB4 and PGF2α were obtained from Amersham (Arlington Heights, Ill.) and Seragen (Boston, Mass.), respectively. […] Aliquots (100 μL) are analyzed for LTB4 and PGF2α using radioimmunoassay kits as provided by the supplier. […]
observable: inhibition at 16 µM (%)
Write the answer as a number in %, unit excluded.

Answer with the recorded inhibition at 16 µM of CNC(=S)N(O)C(c1ccccc1)c1cc(C(C)(C)C)c(O)c(C(C)(C)C)c1 (stereo not drawn) only.
98

Please indicate inhibition at 16 µM recorded for CC(c1cc(C(C)(C)C)c(O)c(C(C)(C)C)c1)N(O)C(N)=O (stereo not drawn)
79

Output measured inhibition at 16 µM for this item: CCOC(=O)N(O)C(c1ccccc1)c1cc(C(C)(C)C)c(O)c(C(C)(C)C)c1 (stereo not drawn)
97

Give me measured inhibition at 16 µM, please, for this compound: CC(C)C(=O)N(O)Cc1cc(C(C)(C)C)c(O)c(C(C)(C)C)c1
95

Answer with the recorded inhibition at 16 µM for the compound listed here: CC(C)C(=O)ON(Cc1cc(C(C)(C)C)c(O)c(C(C)(C)C)c1)C(=O)C(C)C
49

Provide inhibition at 16 µM value for the following compound: CCOC(=O)NC(=S)N(O)C(C)c1cc(C(C)(C)C)c(O)c(C(C)(C)C)c1 (stereo not drawn)
91

###

For each entry below, report its IC50 value.
target: UniProt P12527; assay: ARBL whole cell 5-lipoxygenase assay (LTB4 formation, RBL-1 cells); settings: 50% inhibition of LTB4 formation
Counter-ions that a name gives are not always drawn.
// return numeric value only (unit: nM, not printed)

# assay system UniProt P12527: give IC50 of CC(C)(C)c1cc(C(NO)c2ccccc2)cc(C(C)(C)C)c1O (stereo not drawn)
2300

Answer briefly: IC50 recorded on UniProt P12527 for CC(=O)N(O)C(c1ccccc1)c1cc(C(C)(C)C)c(O)c(C(C)(C)C)c1 (stereo not drawn)
4800

Report IC50 from UniProt P12527 testing of CN(O)C(c1ccccc1)c1cc(C(C)(C)C)c(O)c(C(C)(C)C)c1 (stereo not drawn) [Example 19, monohydrochloride]
1200

###

Kindly supply the reported inhibition at 16 µM values for the records listed here.
Biological target: 5-lipoxygenase (Rattus norvegicus, UniProt P12527)
Construct: host or cells: RBL-1
Sequence (P12527 1-673): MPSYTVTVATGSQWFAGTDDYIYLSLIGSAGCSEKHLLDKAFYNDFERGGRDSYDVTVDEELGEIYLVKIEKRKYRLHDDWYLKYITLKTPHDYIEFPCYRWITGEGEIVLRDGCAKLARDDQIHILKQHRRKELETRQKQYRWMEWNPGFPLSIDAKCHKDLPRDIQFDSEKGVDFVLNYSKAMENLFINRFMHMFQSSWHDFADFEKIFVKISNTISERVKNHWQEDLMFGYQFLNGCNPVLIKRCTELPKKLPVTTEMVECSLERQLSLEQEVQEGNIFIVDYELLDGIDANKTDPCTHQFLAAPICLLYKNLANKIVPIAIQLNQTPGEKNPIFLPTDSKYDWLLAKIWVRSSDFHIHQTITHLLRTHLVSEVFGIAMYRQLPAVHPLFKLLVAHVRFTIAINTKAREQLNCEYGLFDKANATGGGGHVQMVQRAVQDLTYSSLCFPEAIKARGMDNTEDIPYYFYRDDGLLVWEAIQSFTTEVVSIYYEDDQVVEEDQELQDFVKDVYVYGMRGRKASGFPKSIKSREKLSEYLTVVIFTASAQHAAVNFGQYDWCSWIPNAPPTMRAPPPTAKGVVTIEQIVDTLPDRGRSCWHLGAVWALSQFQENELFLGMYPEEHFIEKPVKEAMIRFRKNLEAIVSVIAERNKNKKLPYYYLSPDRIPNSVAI
Test: ARBL whole cell 5-lipoxygenase assay (LTB4 formation, RBL-1 cells)
Assay type: cell-based
Conditions: @ 16 μM, A23187, read-out: ARBL inhibition of LTB4 at given concentration

Input CC(=O)N(O)C(C)c1cc(C(C)(C)C)c(O)c(C(C)(C)C)c1 (stereo not drawn) , output reported inhibition at 16 µM.
> 90%

In one line, give reported inhibition at 16 µM of the entry CC(C)C(=O)N(O)C(C)c1cc(C(C)(C)C)c(O)c(C(C)(C)C)c1 (stereo not drawn) .
> 91%

Please report inhibition at 16 µM for the following molecule: CCNC(=O)N(O)C(C)c1cc(C(C)(C)C)c(O)c(C(C)(C)C)c1 (stereo not drawn)
> 91%

Data provenance: patent US5393923A
